Hello, the source for this data is patent US9932349B2, in case you need it.

- Target: δ opioid receptor (Cavia porcellus)
- Construct: determined in guinea pig brain cells; from tissue; host or cells: guinea pig brain
- Sequence (A0A286XTF2 1-366): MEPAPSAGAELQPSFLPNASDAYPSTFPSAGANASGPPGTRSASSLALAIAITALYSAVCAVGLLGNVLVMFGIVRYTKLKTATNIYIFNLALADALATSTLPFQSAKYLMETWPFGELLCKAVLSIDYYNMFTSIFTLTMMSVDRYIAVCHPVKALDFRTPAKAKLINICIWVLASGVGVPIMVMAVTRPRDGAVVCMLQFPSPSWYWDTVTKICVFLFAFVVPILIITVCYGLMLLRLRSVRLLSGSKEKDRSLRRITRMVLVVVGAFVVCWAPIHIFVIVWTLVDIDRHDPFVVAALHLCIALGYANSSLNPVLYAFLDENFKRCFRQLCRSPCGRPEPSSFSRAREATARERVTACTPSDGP
- Experiment description: biochemical
- Assay type: binding, guinea pig
- Applied conditions: read-out: Ki [3H] Naltrindole (δ)
Quantity name: Ki (nM)
A number alone suffices; assume nM.

Sure, the documented Ki for CC1C2Cc3ccc(NC(N)=O)cc3C1(C)CCN2CC1CC1 (racemic) is 90

Sure, the documented Ki for CC1C2Cc3ccc(NC=O)cc3C1(C)CCN2CC1CC1 (mixture of isomers) is 37

* * *

- Target: κ opioid receptor (Cavia porcellus, UniProt P41144)
- Construct: determined in guinea pig brain cells; from tissue; host or cells: guinea pig brain
- Sequence (P41144 whole entry): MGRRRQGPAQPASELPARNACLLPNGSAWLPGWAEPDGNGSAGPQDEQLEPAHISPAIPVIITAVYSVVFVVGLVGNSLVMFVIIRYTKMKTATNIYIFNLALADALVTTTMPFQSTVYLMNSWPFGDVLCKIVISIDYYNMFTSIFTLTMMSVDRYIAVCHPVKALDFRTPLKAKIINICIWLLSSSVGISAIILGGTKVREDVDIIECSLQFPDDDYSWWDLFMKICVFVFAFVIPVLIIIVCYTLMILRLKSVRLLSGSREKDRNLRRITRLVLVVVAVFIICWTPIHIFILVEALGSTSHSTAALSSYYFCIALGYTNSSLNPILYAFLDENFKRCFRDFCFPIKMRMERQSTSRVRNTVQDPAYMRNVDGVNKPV
- Experiment description: biochemical
- Format: binding, guinea pig
- Applied conditions: read-out: [3H]U69,593 (κ)
Quantity name: Ki (nM)
A number alone suffices; assume nM.

The reported κ opioid receptor (Cavia porcellus, UniProt P41144) Ki of C[C@H]1[C@H]2Cc3ccc(O)cc3[C@]1(C)CCN2CC1CC1 [(−)-Cyclazocine, Cyclazocine, reference compound] is 0.052

The reported κ opioid receptor (Cavia porcellus, UniProt P41144) Ki of C[C@H]1[C@H]2Cc3ccc(O)cc3[C@]1(C)CCN2CC1CC1 [(+)-Cyclazocine, Cyclazocine, reference compound] is 76
